target: human FGFR2b (Homo sapiens, UniProt P21802); assay: ELISA binding to recombinant human FGFR2b (Example 11)
Sequence (P21802 22-822 isoform P21802-3 limits assumed): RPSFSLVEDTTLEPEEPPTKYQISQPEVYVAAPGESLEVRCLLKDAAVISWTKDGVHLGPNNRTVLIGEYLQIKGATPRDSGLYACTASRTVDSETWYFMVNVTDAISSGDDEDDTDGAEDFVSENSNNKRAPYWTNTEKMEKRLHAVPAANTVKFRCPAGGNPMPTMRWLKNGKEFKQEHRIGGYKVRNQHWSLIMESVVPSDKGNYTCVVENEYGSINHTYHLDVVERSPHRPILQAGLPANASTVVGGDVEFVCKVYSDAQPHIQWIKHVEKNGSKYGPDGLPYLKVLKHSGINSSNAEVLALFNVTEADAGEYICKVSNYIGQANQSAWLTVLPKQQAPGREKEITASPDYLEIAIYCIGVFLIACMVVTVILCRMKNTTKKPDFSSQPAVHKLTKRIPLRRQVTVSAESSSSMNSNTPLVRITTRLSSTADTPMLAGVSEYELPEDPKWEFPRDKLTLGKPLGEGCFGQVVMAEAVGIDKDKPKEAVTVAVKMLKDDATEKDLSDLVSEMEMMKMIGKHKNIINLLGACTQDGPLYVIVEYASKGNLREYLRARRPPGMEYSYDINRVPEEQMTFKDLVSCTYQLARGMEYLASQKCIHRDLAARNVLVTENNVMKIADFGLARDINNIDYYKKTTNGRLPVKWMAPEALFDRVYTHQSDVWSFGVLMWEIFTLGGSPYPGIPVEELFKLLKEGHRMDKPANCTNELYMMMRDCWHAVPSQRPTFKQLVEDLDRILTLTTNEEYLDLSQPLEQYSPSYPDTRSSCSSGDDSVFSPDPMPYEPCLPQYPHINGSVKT
reported.property: EC50 (nM)
Numbers only, in nM.

// fetch EC50 given entry BGAh9239: humanized anti-FGFR2b IgG1 antibody from murine BGAm1823; VH SEQ ID NO: 9, VL SEQ ID NO: 10 (antibody, V domains shown, Synthetic: VH AA; Synthetic: VL AA) VH: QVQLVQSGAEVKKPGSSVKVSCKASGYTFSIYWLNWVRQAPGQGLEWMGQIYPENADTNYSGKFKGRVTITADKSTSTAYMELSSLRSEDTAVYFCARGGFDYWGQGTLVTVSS VL: DIQMTQSPSSLSASVGDRVTITCRASENIYSNLAWYQQKPGKAPKLLIYTATNLAEGVPSRFSGSGSGTDFTLTISSLQPEDFATYYCQHFYGILYTFGQGTRLEIK
0.031
